Tested on: CEM-SS
method: Compound was tested for the prevention of cytopathic effect of HIV-1 RF in CEM-SS cells
Assay type: functional, cell-based
test_context: Homo sapiens
readout: EC50 (nM)
Dear colleague, please return just the value in nM, with no unit written.

Entry `COC(=O)CCCC=C(c1cc(Cl)c(OC)c(C(=O)OC)c1)c1cc(Cl)c(OC)c(C(=O)OC)c1` , EC50 reported as 13
